Assay: Identification of antibody-drug conjugate (ADC) payloads which are substrates of ATP-binding cassette drug efflux transporters: ABCG2-H460-MX20 cell line with Ko143
Conditions: H460-MX20 (ABCG2) + Ko143, CellTiter-Glo viability, 48 h; series mostly up to 28.7 µM
Records with an inconclusive call do not appear. Active and inactive are the calls of the source. The call rests on the fitted dose curve; in most records, active means well fitted inhibition curve with a large enough effect; inconclusive means small, poorly fitted or top-dose-only effect; inactive means flat fitted curve, though single readings scatter. Square brackets hold non-standard residues; d marks the D form. Peptide text beside a SMILES is read from it. * marks the point of attachment. Dolaproine = CO[C@@H]([C@@H]1CCCN1)[C@@H](C)C(=O)O; Dil = CC[C@H](C)[C@H](NC)[C@@H](CC(=O)O)OC; X1 = C[C@@H](N*)[C@@H](O)c1ccccc1; NMeV = CN[C@H](C(=O)O)C(C)C
In this exercise, the only acceptable responses are yes (1) for active, no (0) for inactive

The following compounds have reported results that may help.
>>> category("CC[C@H](C)[C@@H]([C@@H](CC(=O)N1CCC[C@H]1[C@H](OC)[C@@H](C)C(=O)N[C@H](C)[C@@H](O)c1ccccc1)OC)N(C)C(=O)[C@@H](NC(=O)[C@@H](NC)C(C)C)C(C)C (H-[NMeV]V[Dil][Dolaproine]-X1)")
"no (0)"
>>> category("CC[C@H](C)[C@@H]1NC(=O)CNC(=O)[C@H]2Cc3c([nH]c4cc(O)ccc34)S(=O)C[C@H](NC(=O)CNC1=O)C(=O)N[C@@H](CC(N)=O)C(=O)N1C[C@H](O)C[C@H]1C(=O)N[C@@H]([C@@H](C)[C@@H](O)CO)C(=O)N2 (stereo partly specified)")
"yes (1)"
>>> category("CC[C@H](C)[C@H](NC(=O)[C@H]1CCCCN1C)C(=O)N(C)[C@H](C[C@@H](OC(C)=O)c1nc(C(=O)O)cs1)C(C)C")
"no (0)"
>>> category("CC[C@@]1(O)C(=O)OCc2c1cc1n(c2=O)Cc2cc3ccccc3nc2-1")
"yes (1)"
>>> category("CC[C@H](C)[C@H](NC(=O)[C@H]1CCCCN1C)C(=O)N(C)[C@H](C[C@@H](OC(C)=O)c1nc(C(=O)N[C@@H](Cc2ccccc2)C[C@H](C)C(=O)O)cs1)C(C)C")
"no (0)"

Q. Per the assay record, what outcome was assigned to COc1cccc2c1C(=O)c1c(O)c3c(c(O)c1C2=O)C[C@@](O)(C(=O)CO)CC3OC1CC(N2CCOC(OC)C2)C(O)C(C)O1 (stereo partly specified) ?
A. yes (1)

The measurements presented in this section are drawn from PubChem BioAssay AID2061319.
